Reported values of ERα receptor activation relative to 10 nM E2 corresponding 100 for individual entries
# measurement_target: ERα (Homo sapiens, UniProt P03372)
# Sequence (P03372 whole entry): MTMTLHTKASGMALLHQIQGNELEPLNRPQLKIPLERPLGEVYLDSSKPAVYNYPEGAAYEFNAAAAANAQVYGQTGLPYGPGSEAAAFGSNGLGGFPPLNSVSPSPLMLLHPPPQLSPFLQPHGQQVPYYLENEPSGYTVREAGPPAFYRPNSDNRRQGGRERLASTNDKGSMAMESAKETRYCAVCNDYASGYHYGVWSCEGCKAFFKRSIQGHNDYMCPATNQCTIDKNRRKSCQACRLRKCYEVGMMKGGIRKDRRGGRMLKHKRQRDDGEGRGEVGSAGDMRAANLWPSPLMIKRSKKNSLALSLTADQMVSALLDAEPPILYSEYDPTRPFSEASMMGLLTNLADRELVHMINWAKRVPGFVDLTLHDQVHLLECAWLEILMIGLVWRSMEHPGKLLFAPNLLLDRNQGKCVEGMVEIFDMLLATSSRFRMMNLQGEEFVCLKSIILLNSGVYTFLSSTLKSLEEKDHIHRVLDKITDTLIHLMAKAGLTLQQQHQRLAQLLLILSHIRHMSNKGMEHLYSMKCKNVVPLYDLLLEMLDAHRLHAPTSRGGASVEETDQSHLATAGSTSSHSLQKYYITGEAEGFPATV
# assay_text: ERα luciferase reporter (pERE2TATA-LUC) transactivation assay in transfected HEK293 cells
# Type: cell-based
# Parameters: expressed in transfected cells; host or cells: HEK293
# experimental_conditions: Table 1, sample concentration 10 μM, 24 hours, mean of at least three independent transfections, SEM typically <15%
reported_metric: ERα receptor activation relative to 10 nM E2 corresponding 100 (%)

| compound | unit_descriptor | reported_result |
| --- | --- | --- |
| O=C(CCCc1ccccc1)CC(O)Cc1ccccc1 (stereo not shown) [Compound 38ab, 2-Hydroxy-1,7-diphenyl-heptan-4-one] | % | 24.7 |
| O=C(CCc1ccc(O)cc1)CC(O)Cc1ccccc1 (stereo not shown) [Compound 31ab] | % | 55.0 |
| O=C(CCCc1ccc(O)cc1)CC(O)Cc1ccccc1 (stereo not shown) [Compound 40ab] | % | 105.2 |
| O=C(Cc1ccccc1)CC(O)CCc1ccccc1 (stereo not shown) [Compound 20ab, 4-Hydroxy-1,6-diphenylhexan-2-one] | % | 4.3 |

====

# measurement_target: ERβ (Homo sapiens, UniProt Q92731)
# Sequence (Q92731 whole entry): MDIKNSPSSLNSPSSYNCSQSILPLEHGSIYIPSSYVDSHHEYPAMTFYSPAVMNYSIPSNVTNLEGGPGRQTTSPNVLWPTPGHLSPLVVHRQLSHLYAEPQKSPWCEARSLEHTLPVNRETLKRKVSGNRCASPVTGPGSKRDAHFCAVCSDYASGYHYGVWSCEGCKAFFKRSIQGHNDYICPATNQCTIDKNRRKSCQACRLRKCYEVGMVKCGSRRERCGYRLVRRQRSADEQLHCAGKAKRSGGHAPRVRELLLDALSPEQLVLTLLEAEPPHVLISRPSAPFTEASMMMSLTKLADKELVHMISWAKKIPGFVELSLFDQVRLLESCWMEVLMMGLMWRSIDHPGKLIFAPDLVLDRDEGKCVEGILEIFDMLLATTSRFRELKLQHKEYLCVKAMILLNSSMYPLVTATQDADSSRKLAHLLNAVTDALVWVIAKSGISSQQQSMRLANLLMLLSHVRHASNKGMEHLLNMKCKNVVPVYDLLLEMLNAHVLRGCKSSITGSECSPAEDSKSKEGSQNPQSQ
# assay_text: ERβ luciferase reporter (pERE2TATA-LUC) transactivation assay in transfected HEK293 cells
# Format: cell-based
# Design: expressed in transfected cells; host or cells: HEK293
# experimental_conditions: HEK293, 24 h, read-out: ERβ receptor activation relative to 10 nM E2 corresponding 100, Table 1, sample concentration 10 μM, mean of at least three independent transfections, SEM typically <15%
Reported values of Emax at 10 µM for individual entries

| molecule | Emax at 10 µM |
| --- | --- |
| COc1ccccc1CC(=O)CC(O)CCc1cccc(F)c1 (single isomer, unassigned) [Compound 22b] | 2.9% |
| CC(O)(CC(=O)CCc1ccc(O)cc1)c1ccccc1 (stereo not drawn) [Compound 23ab] | 116% |
| O=C(CCc1ccc(O)cc1)CC(O)Cc1ccc(F)cc1 (stereo not drawn) [Compound 33ab] | 21.2% |
| O=C(CCc1ccc(O)cc1)CC(O)Cc1ccccc1 (stereo not drawn) [Compound 31ab] | 107% |
| COC(CCc1ccccc1)CC(=O)CCCc1ccccc1 (stereo not drawn) [Compound 52ab, 3-Methoxy-1,8-diphenyl-octan-5-one] | -14.6% |
| COC(CC(=O)CCCc1ccccc1)Cc1ccccc1 (stereo not drawn) [Compound 51ab, 2-Methoxy-1,7-diphenyl-heptan-4-one] | 30.4% |
| O=C(CCCc1ccc(O)c(O)c1)CC(O)Cc1ccccc1 (stereo not drawn) [Compound 41ab] | -0.8% |
| O=C(CC(O)Cc1ccccc1)c1ccc(O)cc1 (stereo not drawn) [Compound 18ab] | 58% |
| O=C(CCCc1ccccc1)CC(O)Cc1ccccc1 (stereo not drawn) [Compound 38ab, 2-Hydroxy-1,7-diphenyl-heptan-4-one] | 9.1% |

====

# measurement_target: ERα (Homo sapiens, UniProt P03372)
# assay_text: ERα luciferase reporter (pERE2TATA-LUC) transactivation assay in transfected HEK293 cells
# Assay type: cell-based
# Set-up: expressed in transfected cells; host or cells: HEK293
# experimental_conditions: Table 1, sample concentration 10 μM, 24 hours, mean of at least three independent transfections, SEM typically <15%
# if value of ERα receptor activation relative to 10 nM E2 corresponding 100 reaches 10%, tag met; if it stays below, tag not met

| compound | answer_label |
| --- | --- |
| CC(O)(CC(=O)CCCc1ccc(O)cc1)c1ccccc1 (centres unmarked) [Compound 37ab] | met |
| COc1ccc(C(=O)CC(O)Cc2ccc(OCCN(C)C)cc2)cc1 (centres unmarked) [Compound 12ab] | not met |
| COC(CC(=O)CCCc1ccccc1)Cc1ccccc1 (centres unmarked) [Compound 51ab, 2-Methoxy-1,7-diphenyl-heptan-4-one] | met |
| O=C(CCCc1ccccc1)CC(O)CCc1ccccc1 (centres unmarked) [Compound 43ab, 6-Hydroxy-1,8-diphenyl-octan-4-one] | not met |
| O=C(CCCc1ccc(O)cc1)CC(O)c1cccc(O)c1 (single isomer, unassigned) [Compound 35a] | met |
| COC(CCc1ccccc1)CC(=O)Cc1ccccc1 (centres unmarked) [Compound 44ab, 4-Methoxy-1,6-diphenyl-hexan-2-one] | met |
| O=C(CCc1ccccc1)CC(O)Cc1cccc2ccccc12 (centres unmarked) [Compound 27ab] | met |
| COc1ccccc1CC(=O)CC(O)CCc1cccc(F)c1 (single isomer, unassigned) [Compound 22b] | not met |
